Literature survey of IC50 (system: UniProtKB P07195).

Illustrative cases are given below, each with its answer.
{"molecule": "CCCCCCCCCC(=O)OC1=C(Sc2ccccc2Cl)C(=O)NC(c2ccsc2)(c2cccc(OC3COC3)n2)C1 (stereo not shown)", "IC50": "100 to 200 µM"}
{"molecule": "O=C1CC(c2ccsc2)(c2cccc(Br)n2)NC(=O)C1Sc1ccc(F)cc1Cl (stereo not shown)", "IC50": "> 100 µM"}
{"molecule": "O=C1CC(c2ccc(N3CCOCC3)cc2)(c2ccsc2)NC(=O)C1Sc1cccc(Cl)c1Cl (stereo not shown)", "IC50": "> 100 µM"}

Query block: # returns recorded IC50 (system: UniProtKB P07195) for "Cc1c(/C=C2\Sc3ccccc3C2=O)c(O)n2c(nc3ccccc32)c1C#N"
Result block: 64.1 µM
